The values you see were collected from patent US20190359687A1.

ASSAY_SYSTEM: T1, Cynomolgus monkey glycophorin A on Cynomolgus monkey red blood cells or red blood cell membranes (Cynomolgus monkey)
T1 construct: whole, on cells; also called Cyno RBC; Cynomolgus monkey RBC membranes
TEST_SUMMARY: Fab on intact cyno RBC, unbound Fab by ELISA; 0 min after 200-fold dilution
TEST_READOUT: percentage of input antibody bound (%)
// note: answer is a bare numeric in %

The cases that follow already have their percentage of input antibody bound on record.
BINDER	percentage of input antibody bound (%)
TPP-7778, affinity matured 6C12 Fab (Fab, V domains shown, Tested as Fab) VH: EVQLVQSGAEVKKPGASVKVSCKASGYTFTTYAIHWVRQAPGQGLEWMGYINPSSGYTRYNPKFKHRVTMTRDKSTSTAYMELRSLRSDDTAVYYCQTGTRDYWGQGTTVTVSS VL: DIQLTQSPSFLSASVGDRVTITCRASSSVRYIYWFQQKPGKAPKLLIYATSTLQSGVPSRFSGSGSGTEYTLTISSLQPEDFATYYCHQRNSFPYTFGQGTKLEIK	56
TPP-7781, affinity matured 6C12 Fab (Fab, V domains shown, Tested as Fab) VH: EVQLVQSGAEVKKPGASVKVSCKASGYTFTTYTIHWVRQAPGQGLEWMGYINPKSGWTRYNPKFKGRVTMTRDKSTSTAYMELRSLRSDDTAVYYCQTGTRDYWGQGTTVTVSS VL: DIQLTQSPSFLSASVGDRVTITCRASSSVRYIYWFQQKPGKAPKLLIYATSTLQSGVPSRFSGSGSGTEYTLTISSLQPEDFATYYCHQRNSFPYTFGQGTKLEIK	40
TPP-7782, affinity matured 6C12 Fab (Fab, V domains shown, Tested as Fab) VH: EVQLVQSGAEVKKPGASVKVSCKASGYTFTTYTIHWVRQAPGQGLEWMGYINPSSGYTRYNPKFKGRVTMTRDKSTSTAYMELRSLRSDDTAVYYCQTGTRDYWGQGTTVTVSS VL: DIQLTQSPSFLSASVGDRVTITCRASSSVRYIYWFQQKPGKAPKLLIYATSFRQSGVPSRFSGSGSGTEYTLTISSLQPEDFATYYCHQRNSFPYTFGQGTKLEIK	88
TPP-7796, affinity matured 6C12 Fab (Fab, V domains shown, Tested as Fab) VH: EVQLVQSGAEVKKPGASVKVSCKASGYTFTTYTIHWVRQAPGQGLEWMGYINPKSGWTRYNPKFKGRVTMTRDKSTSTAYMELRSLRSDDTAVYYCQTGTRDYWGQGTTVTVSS VL: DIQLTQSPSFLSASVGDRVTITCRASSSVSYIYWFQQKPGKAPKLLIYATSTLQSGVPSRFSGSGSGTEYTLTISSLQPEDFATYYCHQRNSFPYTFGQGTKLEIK	56

Moving on to another binder below.
For record TPP-7794, affinity matured 6C12 Fab (Fab, V domains shown, Tested as Fab) VH: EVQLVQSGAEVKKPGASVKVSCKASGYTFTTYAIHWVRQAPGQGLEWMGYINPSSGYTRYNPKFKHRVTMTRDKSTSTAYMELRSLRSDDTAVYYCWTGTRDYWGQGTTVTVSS VL: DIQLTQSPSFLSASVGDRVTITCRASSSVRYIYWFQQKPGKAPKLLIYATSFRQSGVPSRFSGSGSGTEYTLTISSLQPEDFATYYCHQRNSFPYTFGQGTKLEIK the listed percentage of input antibody bound is 67
